test: Toxicity liver stage against HepG2, at 10uM; assay type: cell-based; set-up: test concentration 10 uM, cell line HepG2-A16-CD81EGFP; conditions: human, HepG2-A16-CD81EGFP cells; read-out: INHIBITION
Would you mind telling me the reported cytotoxicity at 10 µM of each entry?
Numbers only, in %.

// known answers, use as guide
Cc1nc(C2CCCN2Cc2ncc(C(C)C)o2)no1 (stereo unspecified)
4.31
Cn1cc(CN2CCC3(CC2)C(=O)Nc2ccccc23)cn1
0.134
CN(C)C[C@H]1C[C@@H](CO)CN(C(=O)c2cc(=O)[nH]c3cc(F)ccc23)C1
-4.16
Cc1cc(C)n(CC(C)NCCn2nc(C)c(Cl)c2C)n1 (stereo unspecified)
-5.44
CCOC1CC2(CCN(Cc3cnn(C)c3)CC2)c2ccc(C)cc21 (stereo unspecified)
4.62

Hi, could you look up cytotoxicity at 10 µM for each item in my list?
1. Cc1cc(NCc2nnc3n2CCC3)n2nc(C)c(C)c2n1
2. FC(F)CN1CCC(NCc2ccc(-n3cccn3)nc2)CC1
3. CN(C)CCOCc1cncc2c1CCN(C(=O)C1CCOCC1)C2
4. Cc1ncnc(NCC(C)N(C)c2ccccc2)c1C (stereo unspecified)
5. CN(C)C(=O)N1CC[C@@H](c2ccc3ccccc3c2)[C@H](O)C1
6. O=C(c1ccnnc1)N1CC[C@@H](O)[C@@H]1Cc1ccccc1

Return:
[1.16, 10.6, -1.87, 60.3, -5.81, 5.03]

----------
experiment: Toxicity liver stage against HepG2, at 10uM; format: cell-based; parameters: test concentration 10 uM, cell line HepG2-A16-CD81EGFP; settings: human, HepG2-A16-CD81EGFP cells; read-out: INHIBITION
reported metric: cytotoxicity at 10 µM (%)
Give bare numbers, in %.

// known answers, use as guide
CCc1noc(CN(CC)Cc2cc3cc(C)ccc3[nH]c2=O)n1
2.7
CCN(CC(C)C#N)C(=O)CNc1ccc(F)c(C)c1 (stereo unspecified)
17.5
Cc1nn(C)c2c(N3CCN(C(=O)C(C)C)CC3)ncnc12
6.78
COCc1nnc(-c2cccc(C(=O)OC(C)C)c2)o1
-21.8
N#Cc1ccc(NCCCOCC2CCCO2)c(F)c1 (stereo unspecified)
0.536

Enquiry: Quick one: cytotoxicity at 10 µM for `O=S(=O)(Nc1cnc(N2CCCC2)nc1)c1ccc(OC(F)(F)F)cc1` ?
Return: 2.41

----------
assay: Toxicity liver stage against HepG2, at 10uM; format: cell-based; set-up: test concentration 10 uM, cell line HepG2-A16-CD81EGFP; details: human, HepG2-A16-CD81EGFP cells; read-out: INHIBITION
reported metric: cytotoxicity at 10 µM
Just so you know, I need the unit written after the number.

Hi, could you look up cytotoxicity at 10 µM for each item in my list?
1. c1ccc(N2CCCC(c3nc(-c4cccnn4)no3)C2)nc1 (stereo unspecified)
2. CN(C)C[C@@H]1CN(C(=O)CCC2CCCC2)C[C@@H]1CO
3. Cc1c2ncn(CC(=O)c3ccccc3)c(=O)c2nn1C
4. CCN(Cc1ccc2c(c1)OCCO2)C(=O)NC(C)Cn1cccn1 (stereo unspecified)
5. O=C(c1cc(-c2cccs2)cs1)N1CCOCC1
6. CS(=O)(=O)Cc1ccc(CNC(=O)N2CCC(C(N)=O)C2)cc1 (stereo unspecified)

Return:
1. -3.42%
2. -2.94%
3. -8.58%
4. -10.6%
5. 5.01%
6. -6.43%

----------
assay: Toxicity liver stage against HepG2, at 10uM; format: cell-based; design: test concentration 10 uM, cell line HepG2-A16-CD81EGFP; settings: human, HepG2-A16-CD81EGFP cells; read-out: INHIBITION
reported metric: cytotoxicity at 10 µM (%)
Numbers only, in %.

// known answers, use as guide
CS(=O)(=O)c1ccc(Cl)c(NC(=O)NCCC2=CCCCC2)c1
0.0793
CC(C)NC(=O)NCc1ccccc1NS(=O)(=O)c1ccccc1
9.6
CCC(C)(C)C(=O)N1C[C@@H]2C[C@@H](c3nnc(C)[nH]3)O[C@@H]2C1
4.79
Cc1cc(C)cc(OCCN(C)C(=O)NC(C)c2nncn2C)c1 (stereo not drawn)
-19.1

Hi, could you look up cytotoxicity at 10 µM for each item in my list?
1. O=C(CN1CC(c2ccccc2)CC1=O)N1CCC(c2ncc[nH]2)CC1 (stereo not drawn)
2. OCCC1CN(c2nc(-c3cccnc3)nc3c2CCNCC3)CCO1 (stereo not drawn)
3. Cc1cccc(C(=O)N(CCCO)S(=O)(=O)c2cccs2)c1

Return:
-0.234
-2.64
8.01

----------
assay: Toxicity liver stage against HepG2, at 10uM; format: cell-based; parameters: test concentration 10 uM, cell line HepG2-A16-CD81EGFP; conditions: human, HepG2-A16-CD81EGFP cells; read-out: INHIBITION
reported metric: cytotoxicity at 10 µM (%)
One number for each entry, in %.

O=C(C1CCOCC1)N1CCN(CC2CC2)c2ncccc2C1
-107

Hi, could you look up cytotoxicity at 10 µM for each item in my list?
1. Cc1ncc2c(n1)CCCC2NC(=O)c1ccccc1Cn1cncn1 (stereo unspecified)
2. OC1CCCOC12CCN(Cc1nnc(-c3cccnc3)o1)CC2 (stereo unspecified)
3. CCN(CC)C(CNC(=O)c1c(C)noc1C(C)C)c1ccsc1 (stereo unspecified)

Return:
-24.4
4.49
-12.2

Hi, could you look up cytotoxicity at 10 µM for each item in my list?
1. COc1ccccc1C1(CNc2nnc(C)c(C)c2C#N)CCCC1
2. Fc1cccnc1N1CCC(NCc2cccc3cn[nH]c23)C1 (stereo unspecified)

Return:
34.4
13.6

Hi, could you look up cytotoxicity at 10 µM for each item in my list?
1. CSc1ccc(-c2noc(CN(Cc3ccccc3)C(C)C)n2)cc1
2. CN(CCc1ccncc1)C(=O)C1CSCN1C(=O)CC(C)(C)C (stereo unspecified)
3. CC[C@H]1CN2CC[C@H]1C[C@@H]2CNCc1ccc2c(c1)OCO2
4. c1cnc(-c2nc(CN3CCOC(Cn4cncn4)C3)cs2)nc1 (stereo unspecified)
5. O=S(=O)(c1ccc(F)c(F)c1)n1cc(Cl)cn1

Return:
3.88
10.2
-5.9
-15.2
4.66

----------
experiment: Toxicity liver stage against HepG2, at 10uM; type: cell-based; parameters: test concentration 10 uM, cell line HepG2-A16-CD81EGFP; details: human, HepG2-A16-CD81EGFP cells; read-out: INHIBITION
Would you mind telling me the reported cytotoxicity at 10 µM of each entry?
One number for each entry, in %.

Hi, could you look up cytotoxicity at 10 µM for each item in my list?
1. CN(C)S(=O)(=O)N1C[C@H]2CC[C@@H](C1)N(Cc1ccc(F)c(F)c1)C2
2. CN(C)S(=O)(=O)N1C[C@H]2CCC[C@@]2(COCC2CCOCC2)C1
3. O=C(NCCCn1ccnc1)NCC(c1ccco1)N1CCCCC1 (stereo unspecified)
4. CC1CN(CC(=O)NCc2cccs2)CCN1c1nccs1 (stereo unspecified)

Return:
1. 1.05
2. 7.45
3. 5.71
4. -12.8

Hi, could you look up cytotoxicity at 10 µM for each item in my list?
1. c1cc2nc(C3CCN(CC4CC4)CC3)nn2cc1N1CCCC1
2. Cc1ccc(CN(Cc2cc(=O)n3cccc(C)c3n2)C(C)C)o1

Return:
-8.13
7.65

----------
assay: Toxicity liver stage against HepG2, at 10uM; type: cell-based; set-up: test concentration 10 uM, cell line HepG2-A16-CD81EGFP; details: human, HepG2-A16-CD81EGFP cells; read-out: INHIBITION
Would you mind telling me the reported cytotoxicity at 10 µM of each entry?
Numbers only, in %.

O=C(CN1C(=O)CCC1=O)NCC1(O)CCc2ccccc21 (configuration not stated)
-15.7
c1ccc(C(Cn2cnnc2)N2CCOCC2)nc1 (configuration not stated)
0.997
O=C(NC1CCCC1)NC1CCc2[nH]c(=O)ccc2C1 (configuration not stated)
7.91
CCC(C)N(Cc1cnc(OC)nc1)Cc1ccsc1 (configuration not stated)
1.71

Hi, could you look up cytotoxicity at 10 µM for each item in my list?
1. CN(C)CCNC(=O)c1ccc2ccc(N(C)CC3CC3)n2c1
2. CN1CCC(N2CCCC(C(=O)N3Cc4ccccc4C3)C2)CC1 (configuration not stated)
3. CN1CC2(CCCN(Cc3ccccc3OCC(=O)O)C2)OC1=O (configuration not stated)
4. CCN(CC)c1ccc2ccc(C(=O)O)cn12
5. CSc1ccc(-c2nc(CN3C[C@@H](C)NC[C@@H]3C)c(C)o2)cc1
6. CN(C)CCN(C)C(=O)Nc1cc(F)cc(N2CCCC2)c1

Return:
-2.69
5.19
-6.64
1.42
-3.06
-2.22

Hi, could you look up cytotoxicity at 10 µM for each item in my list?
1. CCc1[nH]ncc1C(=O)N1CCCC(n2cccn2)C1 (configuration not stated)
2. CC(NC(=O)c1cccs1)(C(N)=O)c1cccc(C(F)(F)F)c1 (configuration not stated)

Return:
[4.62, -3.42]

Sourced from ChEMBL document CHEMBL4513216
